What follows is a record of EC50 for HIV-1IIIb.
One number for each entry, in µg/mL.

Cc1c(O)cccc1C(=O)N[C@@H](CSc1ccccc1)[C@H](O)CN1C[C@H]2CCCC[C@H]2C[C@H]1C(=O)NC(C)(C)C [Nelfinavir, reference compound]; 0.00927
CC(C)(C)NC(=O)[C@@H]1CN(Cc2cccnc2)CCN1C[C@@H](O)C[C@@H](Cc1ccccc1)C(=O)N[C@H]1c2ccccc2C[C@H]1O; 0.0276
Nc1ccn([C@@H]2CS[C@H](CO)O2)c(=O)n1 [Peptide 3TC, reference compound]; 0.0748

Given the molecule "Cc1cn([C@H]2C[C@H](N=[N+]=[N-])[C@@H](CO)O2)c(=O)[nH]c1=O" , what is its reported EC50?
13.1
